Parameter: protein stability index. Scope: all listed entries.
test system: Saccharomyces cerevisiae; assay: protein stability index of tFT-peptide fusion (C-terminal peptide) (PSI (0-1 scale)); higher = more stable (slower turnover); settings: genetic background: das1 deletion; temperature: 30 C

LFLFVGCSVRRL
0.392
GWFCLFFVVSTG
0.225
YVLWFVCGVGFV
0.29
WWVAGLGSSGGG
0.663

Dear colleague, I am looking for the recorded protein stability index of the following sequence: CRLLYYIPCGLF
0.534

Dear colleague, I am looking for the recorded protein stability index of the following sequence: EQMRRYILVSYV
0.427

Dear colleague, I am looking for the recorded protein stability index of the following sequence: GVFVWVVFVCTM
0.198

Dear colleague, I am looking for the recorded protein stability index of the following sequence: FPTLVRKFINAI
0.56

Dear colleague, I am looking for the recorded protein stability index of the following sequence: CLISILLFLCFT
0.392

Dear colleague, I am looking for the recorded protein stability index of the following sequence: IILGVRQIEVNS
0.358

Dear colleague, I am looking for the recorded protein stability index of the following sequence: GGYVTVTSVTVV
0.501

Dear colleague, I am looking for the recorded protein stability index of the following sequence: FVSFTVSFSVVV
0.334

Dear colleague, I am looking for the recorded protein stability index of the following sequence: LCVFRFFLFFFL
0.327

Dear colleague, I am looking for the recorded protein stability index of the following sequence: SPPPLFLIVLHL
0.446

Dear colleague, I am looking for the recorded protein stability index of the following sequence: DFIVVIRFIQII
0.266

Dear colleague, I am looking for the recorded protein stability index of the following sequence: GCLSFVAAVHLH
0.598

Dear colleague, I am looking for the recorded protein stability index of the following sequence: VPWSKIAARLII
0.618

Dear colleague, I am looking for the recorded protein stability index of the following sequence: GFRVPVVVGVRG
0.334

Dear colleague, I am looking for the recorded protein stability index of the following sequence: IMWCSSVSEVQW
0.472

Dear colleague, I am looking for the recorded protein stability index of the following sequence: LFLLYVLVSLFV
0.267

Dear colleague, I am looking for the recorded protein stability index of the following sequence: RVGALLAVTCPA
0.308

Dear colleague, I am looking for the recorded protein stability index of the following sequence: GGGGVFGVWVWM
0.511

Dear colleague, I am looking for the recorded protein stability index of the following sequence: FSYFFIFFYMVC
0.234

Dear colleague, I am looking for the recorded protein stability index of the following sequence: RPIFAYRPLRFL
0.654

Dear colleague, I am looking for the recorded protein stability index of the following sequence: LCFLVALASMLF
0.472

Dear colleague, I am looking for the recorded protein stability index of the following sequence: RSPIRYPPVVLS
0.645

Dear colleague, I am looking for the recorded protein stability index of the following sequence: RSWLCFIVFGLF
0.317

Dear colleague, I am looking for the recorded protein stability index of the following sequence: CSLRLCVRGAIV
0.602

Dear colleague, I am looking for the recorded protein stability index of the following sequence: SVGCCLLCFFVL
0.41

Dear colleague, I am looking for the recorded protein stability index of the following sequence: VCLFFFGYWCCL
0.469

###

test system: Saccharomyces cerevisiae; assay: protein stability index of tFT-peptide fusion in wild type (PSI (0-1 scale)); higher = more stable (slower turnover); settings: genetic background: wild type
Think of 0.3 as a floor: if protein stability index stands on it or above, it is TRUE; beneath it, FALSE.

The examples below pair each entry with its known result.
AITLPMGPLLLR
FALSE
FSMRWTFRTWVN
FALSE
RLLRVLLPLYFR
TRUE
PDKRDHLIKLLN
FALSE
ARWRVGLWRGAST
TRUE

Is reported protein stability index greater than or equal to 0.3 here: LKILRQKMNHQNI
TRUE

Is reported protein stability index greater than or equal to 0.3 here: KKHKKGQKQTIN
TRUE

Is reported protein stability index greater than or equal to 0.3 here: ARWRVGLWRGAC
FALSE

Is reported protein stability index greater than or equal to 0.3 here: LVVYLSCVACING
FALSE

Is reported protein stability index greater than or equal to 0.3 here: PDKRNHLTKLLN
FALSE

Is reported protein stability index greater than or equal to 0.3 here: FSMRWTIRYWVN
FALSE

Is reported protein stability index greater than or equal to 0.3 here: VREAVGGWRLVG
FALSE

###

tested on: Saccharomyces cerevisiae; assay: protein stability index of tFT-peptide fusion (C-terminal peptide) (PSI (0-1 scale)); higher = more stable (slower turnover); conditions: genetic background: wild type; temperature: 30 C
Parameter: protein stability index. Scope: all listed entries.
// return just the number, without any unit appended

KSHKKKKKNKNF
0.539
CRWRLGRLARCA
0.515
SIFFLVPLVFLS
0.214
GVVGKDEGRSRA
0.797
GVVWMSCGGGWG
0.754
CSSSNRRRYFVL
0.187

protein stability index of GGVCVGLWGGRG on Saccharomyces cerevisiae?
0.709

protein stability index of FSSSSVRINLGV on Saccharomyces cerevisiae?
0.663

protein stability index of PPRRPPRPPPPA on Saccharomyces cerevisiae?
0.701

###

tested on: Saccharomyces cerevisiae; assay: protein stability index of tFT-peptide fusion in deletion strain of DOA10 (PSI (0-1 scale)); higher = more stable (slower turnover)
Readout name: protein stability index
// return just the number, without any unit appended

Look over these answered cases.
GLYMCSVGCWER
0.656
CLVSLPFLLFFR
0.618
RSLRVLLMLYFR
0.468
CLVSLPILLFFRA
0.475
GLYMCVVGCWFR
0.354
AITLPMCPLLLRC
0.381
RSLRVLLCLYFR
0.471
GLYMFSVGCWFR
0.524

Dear colleague, I am looking for the recorded protein stability index of the following sequence: GLYMNSVGCWFR
0.704

Dear colleague, I am looking for the recorded protein stability index of the following sequence: CLVSLPILLFFR
0.586

Dear colleague, I am looking for the recorded protein stability index of the following sequence: CLVSLPILLFPR
0.654

###

tested on: Saccharomyces cerevisiae; experiment: protein stability index of tFT-peptide fusion (C-terminal peptide) (PSI (0-1 scale)); higher = more stable (slower turnover); details: genetic background: das1 deletion; temperature: 30 C
Readout name: protein stability index
// return just the number, without any unit appended

Look over these answered cases.
CSSSNRRRYFVL
0.66
IWIRLGSENTVI
0.646
VSDLYLSLVRVV
0.46
FFIMFFDFWGYF
0.335
VSGVLRSMVRLQ
0.66
GLPGYAWGRSGG
0.743
DMWYLLWRVCYI
0.43
VPGPSPPRFTQR
0.658

Dear colleague, I am looking for the recorded protein stability index of the following sequence: SIFFLVPLVFLS
0.408

Dear colleague, I am looking for the recorded protein stability index of the following sequence: RPGRWFCFLYCV
0.418

Dear colleague, I am looking for the recorded protein stability index of the following sequence: FVVIFRFSRFSA
0.336

Dear colleague, I am looking for the recorded protein stability index of the following sequence: VDFCLLFLLLLV
0.349

Dear colleague, I am looking for the recorded protein stability index of the following sequence: YIYIFLVWGWYC
0.214

Dear colleague, I am looking for the recorded protein stability index of the following sequence: FRRSFPFPLFLR
0.196

Dear colleague, I am looking for the recorded protein stability index of the following sequence: WFVFVFCSPRSS
0.4

Dear colleague, I am looking for the recorded protein stability index of the following sequence: LVSYHKMAISSF
0.436

Dear colleague, I am looking for the recorded protein stability index of the following sequence: RRVPVHIHFSLF
0.691

Dear colleague, I am looking for the recorded protein stability index of the following sequence: DISWVFVLLIFF
0.3

Dear colleague, I am looking for the recorded protein stability index of the following sequence: CYFLFFLSYSLE
0.231

###

tested on: Saccharomyces cerevisiae; experiment: protein stability index of tFT-peptide fusion (C-terminal peptide) (PSI (0-1 scale)); higher = more stable (slower turnover); conditions: genetic background: wild type; temperature: 30 C
Readout name: protein stability index
// return just the number, without any unit appended

Dear colleague, I am looking for the recorded protein stability index of the following sequence: TKQSKRKHESRT
0.671

Dear colleague, I am looking for the recorded protein stability index of the following sequence: SASVACFCGLVV
0.7

Dear colleague, I am looking for the recorded protein stability index of the following sequence: KKKKKIEQRKQE
0.67

Dear colleague, I am looking for the recorded protein stability index of the following sequence: GSRTHSMEDTTG
0.646

Dear colleague, I am looking for the recorded protein stability index of the following sequence: VCGRWVYPGGCR
0.61
